Reference source for all entries: ChEMBL document CHEMBL4513141

Here the recorded Inhibition is given for each entry.
Test system: Escherichia coli
Details: Concentration 20 uM; ASSAY_TEST Inhibition of Bacterial Growth; detection method Absorption (OD600); MEDIA CAMHB; plate type 384well; NBS; CORNING #3640; time 18 hr
Potency and affinity values are given separately.
Note: unit % is implicit; provide only the numeric part.

Worked examples, 3 molecules total:
molecule	unit-spec	reported
CC1=C(/C=C/C(C)=C/C=C/C(C)=C\C(=O)O)C(C)(C)CCC1	%	-1.2
CCCCNC(=O)NS(=O)(=O)c1ccc(C)cc1 [TOLBUTAMIDE]	%	0.97
COC(=O)Nc1nc2cc(C(=O)c3ccccc3)ccc2[nH]1	%	3.86

// query Data request, read-out Inhibition, for CN[C@@H]1[C@H](O)[C@H](NC)[C@H]2O[C@@]3(O)C(=O)C[C@@H](C)O[C@H]3O[C@@H]2[C@H]1O.Cl.Cl.Cl.O.O.O
// result 29.97

// query Item under review: CCC(=O)O[C@]1(C(=O)SCF)[C@H](C)C[C@H]2[C@@H]3C[C@H](F)C4=CC(=O)C=C[C@]4(C)[C@@]3(F)[C@@H](O)C[C@@]21C [FLUTICASONE PROPIONATE] . Reported Inhibition?
// result 6.95

// query I have this molecule here, COc1ccccc1OCC(O)COC(N)=O (stereo not drawn) , and I need its recorded Inhibition.
// result -0.64

// query Any idea what its Inhibition is? The molecule is CCC(C)(C)C(=O)O[C@H]1C[C@@H](C)C=C2C=C[C@H](C)[C@H](CC[C@@H]3C[C@@H](O)CC(=O)O3)[C@H]21
// result 6.01

// query Item under review: O=c1[nH]c(=O)n(C2CCCO2)cc1F (stereo not drawn) . Reported Inhibition?
// result 8.41

###

Tested on: Staphylococcus aureus
Settings: Concentration 20 uM; ASSAY_TEST Inhibition of Bacterial Growth; detection method Absorption (OD600); MEDIA CAMHB; plate type 384well; NBS; CORNING #3640; time 18 hr
Entries with a potency or affinity are not part of this list.
attribute-measured: Inhibition (%)
Number only, in %; omit the unit.

compound	target-of-assay	reported
NS(=O)(=O)c1cc2c(cc1Cl)NCNS2(=O)=O [HYDROCHLOROTHIAZIDE]	Staphylococcus aureus	6.38
CC1(C)O[C@@H]2[C@@H](CO[C@@]3(COS(N)(=O)=O)OC(C)(C)O[C@@H]23)O1 [TOPIRAMATE]	Staphylococcus aureus	3.5
Cl.O=C(NCC1CCCCN1)c1cc(OCC(F)(F)F)ccc1OCC(F)(F)F (configuration not stated)	Staphylococcus aureus	10.41
COc1ccc(/C=C/C(=O)Nc2ccccc2C(=O)O)cc1OC	Staphylococcus aureus	8.38
CC1(C)O[C@@H]2C[C@H]3[C@@H]4CCC5=CC(=O)C=C[C@]5(C)[C@@]4(F)[C@@H](O)C[C@]3(C)[C@]2(C(=O)CO)O1 [TRIAMCINOLONE ACETONIDE]	Staphylococcus aureus	7.65

// query I have this compound here, CN1CCN(C2=Nc3cc(F)ccc3Cc3ccccc32)CC1 , and I need its recorded Inhibition.
// result 14.37

// query Entry under review: N[C@@H](Cc1cc(I)c(Oc2cc(I)c(O)c(I)c2)c(I)c1)C(=O)O . Reported Inhibition?
// result -5.39

// query Given COc1ccc(C(=O)NCc2ccc(OCCN(C)C)cc2)cc1OC.Cl , state its recorded Inhibition.
// result -18.22

// query Request the reported Inhibition associated with O=C1N=C([O-])NC1(c1ccccc1)c1ccccc1.[Na+] [PHENYTOIN SODIUM]
// result 10.31

// query Please report the recorded Inhibition for CN(CCOc1ccc(CC2SC(=O)NC2=O)cc1)c1ccccn1.O=C(O)/C=C\C(=O)O (configuration not stated) [ROSIGLITAZONE MALEATE] .
// result 5.02

// query Item Cc1cnc(C(=O)NCCc2ccc(S(=O)(=O)NC(=O)NC3CCCCC3)cc2)cn1 [GLIPIZIDE] has what recorded Inhibition?
// result 13.08

// query Given the entry CC(CCCCC(=O)Nc1ccc(C(F)(F)F)cc1)NCCc1c[nH]cn1.O=C(O)/C=C\C(=O)O.O=C(O)/C=C\C(=O)O (configuration not stated) , report its measured Inhibition.
// result 7.23

// query What measured Inhibition goes with CC(=O)[C@@]1(O)CC[C@H]2[C@@H]3C[C@H](C)C4=CC(=O)CC[C@]4(C)[C@H]3CC[C@@]21C ?
// result 8.66

// query Which Inhibition is listed for Nc1nc(Cl)nc2c1ncn2[C@H]1C[C@H](O)[C@@H](CO)O1 ?
// result 6.87

// query Request the reported Inhibition associated with C[C@H]1O[C@@H](O[C@H]2[C@@H](O)C[C@H](O[C@H]3[C@@H](O)C[C@H](O[C@H]4CC[C@@]5(C)[C@H](CC[C@@H]6[C@@H]5C[C@@H](O)[C@]5(C)C(C7=CC(=O)OC7)CC[C@]65O)C4)O[C@@H]3C)O[C@@H]2C)C[C@H](O)[C@@H]1O (some centres not stated)
// result 15.53

// query Given the compound CN(C)CC/C=C1/c2ccccc2COc2ccc(CC(=O)O)cc21.Cl [OLOPATADINE HYDROCHLORIDE] , what is its reported Inhibition?
// result -18.81
